TESTED TARGET: Ba/F3-BCR-ABL1-T315I-C3 cells (Homo sapiens, UniProt P00519, T315I, cells depend on it)
Construct: fused on or other part: P11274 (Breakpoint cluster region protein)
ASSAY SUMMARY: Inhibitory effect of compounds on proliferation of BCR-ABL T315I-transfected Ba/F3 cells (CCK-8)
Type: cell-based
CONDITION PARAMETERS: 72 h with compound, CCK-8, 5% serum, read-out: IC50 (nM) Ba/F3-BCR-ABL1 T315I
Procedure: Ba/F3-BCR-ABL1-T315I-C3 cells in logarithmic growth phase and good cell condition were added to a centrifuge tube and centrifuged at 1000 rpm for 5 min in a low speed centrifuge. […] The cells were counted using a cell counter, diluted with complete medium to a cell density of 6×10^4 cells/mL, and an equivalent amount of RPMI 1640 basic medium was added to adjust the serum concentration to 5% and the cell density to 3×10^4 cells/mL for plate seeding. […]
Kindly apply the following: y if GI50 is less than 4 nM, n in every other case.

- MOLECULE: "Cn1ccc(-c2cc(C(=O)Nc3ccc(OC(F)(F)Cl)cc3)cnc2N2CCC3(CC2)COC3)cc1=O [Compound 24]"
  CLASSIFICATION: "n"
- MOLECULE: "Cn1ccc(-c2cc(C(=O)Nc3ccc(OC(F)(F)Cl)cc3)cnc2N2CCOCC2)cc1=O [Compound 7]"
  CLASSIFICATION: "n"
- MOLECULE: "O=C(Nc1ccc(OC(F)(F)Cl)cc1)c1cnc(N2C3CCC2COC3)c(-c2cnn3c2COCC3)c1 [Compound 37]"
  CLASSIFICATION: "n"
- MOLECULE: "O=C(Nc1ccc(OC(F)(F)Cl)cc1)c1cnc(N2CC(O)C2)c(-c2cc3c([nH]2)C(=O)NCC3)c1 [Compound 98]"
  CLASSIFICATION: "y"
- MOLECULE: "C[C@@H]1CCN1c1ncc(C(=O)Nc2ccc(OC(F)(F)Cl)cc2)cc1-c1cc(=O)n(C)cn1 [Compound 76]"
  CLASSIFICATION: "y"
- MOLECULE: "Cn1ccc(-c2cc(C(=O)Nc3ccc(OC(F)(F)Cl)cc3)cnc2N2CC3CC(C2)O3)cc1=O [Compound 23]"
  CLASSIFICATION: "n"

###

TESTED TARGET: Ba/F3-BCR-ABL1-T315I-C3 cells (Homo sapiens, UniProt P00519, T315I, cells depend on it)
Construct: fused on or other part: P11274 (Breakpoint cluster region protein)
ASSAY SUMMARY: Inhibitory effect of compounds on proliferation of BCR-ABL T315I-transfected Ba/F3 cells (CCK-8)
Assay type: cell-based
CONDITION PARAMETERS: 72 h with compound, CCK-8, 5% serum, read-out: IC50 (nM) Ba/F3-BCR-ABL1 T315I
Measured GI50 by item

- SMILES STR: "O=C(Nc1ccc(OC(F)(F)Cl)cc1)c1cnc(N2CC[C@@H](O)C2)c(-c2cc3c([nH]2)C(=O)NC3)c1"
  U: "nM"
  GI50: 0.54
- SMILES STR: "Cn1ncc(-c2cc(C(=O)Nc3ccc(OC(F)(F)Cl)cc3)cnc2N2CCCC2)cc1=O"
  U: "nM"
  GI50: 1.8
- SMILES STR: "CN1CCc2cc(-c3cc(C(=O)Nc4ccc(OC(F)(F)Cl)cc4)cnc3N3CC[C@@H](O)C3)[nH]c2C1=O"
  U: "nM"
  GI50: 0.88
- SMILES STR: "O=C(Nc1ccc(OC(F)(F)Cl)cc1)c1cnc(N2CC3CC(C2)O3)c(-c2cnn3c2COCC3)c1"
  U: "nM"
  GI50: 2.4
- SMILES STR: "Cn1cnc(-c2cc(C(=O)Nc3ccc(OC(F)(F)Cl)cc3)cnc2N2CCCC2)cc1=O"
  U: "nM"
  GI50: 8.1
- SMILES STR: "Cn1ccc(-c2cc(C(=O)Nc3ccc(OC(F)(F)Cl)cc3)cnc2N2C3COCC2C3)cc1=O"
  U: "nM"
  GI50: 38
- SMILES STR: "Cn1cncc(-c2cc(C(=O)Nc3ccc(OC(F)(F)Cl)cc3)cnc2N2CCOCC2)c1=O"
  U: "nM"
  GI50: 4

###

ASSAY SUMMARY: Evaluation of pharmacokinetics in mice
Type: in vivo
CONDITION PARAMETERS: mouse, po; ICR mice, ig, 10 mg/kg, plasma; read-out: MRT(0-24)
MEASURE NAME: MRT last (h)

- SMILES STR: "Cn1ccc(-c2cc(C(=O)Nc3ccc(OC(F)(F)Cl)cc3)cnc2N2CCCC2)cc1=O"
  MEASURE NAME: "MRT last"
  QUANTITATIVE READOUT: 3.64
- SMILES STR: "Cn1ccc(-c2cc(C(=O)Nc3ccc(OC(F)(F)Cl)cc3)cnc2N2CC[C@@H](F)C2)cc1=O"
  MEASURE NAME: "MRT last"
  QUANTITATIVE READOUT: 3.33
- SMILES STR: "CN(C)c1ncc(C(=O)Nc2ccc(OC(F)(F)Cl)cc2)cc1-c1cc(=O)n(C)cn1"
  MEASURE NAME: "MRT last"
  QUANTITATIVE READOUT: 4.83
- SMILES STR: "Cn1ccc(-c2cc(C(=O)Nc3ccc(OC(F)(F)Cl)cc3)cnc2N2CCOCC2)cc1=O"
  MEASURE NAME: "MRT last"
  QUANTITATIVE READOUT: 3.03

###

TESTED TARGET: Ba/F3-BCR-ABL1-T315I-C3 cells (Homo sapiens, UniProt P00519, T315I, cells depend on it)
Construct: fused on or other part: P11274 (Breakpoint cluster region protein)
ASSAY SUMMARY: Inhibitory effect of compounds on proliferation of BCR-ABL T315I-transfected Ba/F3 cells (CCK-8)
Assay type: cell-based
CONDITION PARAMETERS: 72 h with compound, CCK-8, 5% serum, read-out: IC50 (nM) Ba/F3-BCR-ABL1 T315I
Kindly apply the following: Met if GI50 is less than 40 nM, Not met in every other case.

- SMILES STR: "O=C(Nc1ccc(OC(F)(F)Cl)cc1)c1cnc(N2CC3CCC(C2)O3)c(-c2cnn3c2COCC3)c1"
  CLASSIFICATION: "Met"
- SMILES STR: "Cn1ccc(-c2cc(C(=O)Nc3ccc(OC(F)(F)Cl)cc3)cnc2N2C[C@H](O)[C@@H](F)C2)cc1=O"
  CLASSIFICATION: "Not met"
- SMILES STR: "Cn1ccc(-c2cc(C(=O)Nc3ccc(OC(F)(F)Cl)cc3)cnc2N2CC[C@@H](Cl)C2)cc1=O"
  CLASSIFICATION: "Met"
- SMILES STR: "O=C(Nc1ccc(OC(F)(F)Cl)cc1)c1cnc(N2CC[C@@H](O)C2)c(-c2cc3nccn3[nH]2)c1"
  CLASSIFICATION: "Not met"
- SMILES STR: "CN1CCc2cc(-c3cc(C(=O)Nc4ccc(OC(F)(F)Cl)cc4)cnc3N3CCOCC3)[nH]c2C1=O"
  CLASSIFICATION: "Met"
- SMILES STR: "Cn1ccc(-c2cc(C(=O)Nc3ccc(OC(F)(F)Cl)cc3)cnc2N2CCCC2)cc1=O"
  CLASSIFICATION: "Met"
- SMILES STR: "Cn1ccc(-c2cc(C(=O)Nc3ccc(OC(F)(F)Cl)cc3)cnc2N2C[C@@H]3C[C@H]2CO3)cc1=O"
  CLASSIFICATION: "Met"
- SMILES STR: "O=C(Nc1ccc(OC(F)(F)Cl)cc1)c1cnc(N2C[C@H]3C[C@@H]2CO3)c(-c2cnn3c2COCC3)c1"
  CLASSIFICATION: "Met"

###

TESTED TARGET: Ba/F3-BCR-ABL1-T315I-C3 cells (Homo sapiens, UniProt P00519, T315I, cells depend on it)
Construct: fused on or other part: P11274 (Breakpoint cluster region protein)
ASSAY SUMMARY: Inhibitory effect of compounds on proliferation of BCR-ABL T315I-transfected Ba/F3 cells (CCK-8)
Assay type: cell-based
CONDITION PARAMETERS: 72 h with compound, CCK-8, 5% serum, read-out: IC50 (nM) Ba/F3-BCR-ABL1 T315I
Kindly apply the following: label 1 if GI50 is less than 10 nM, label 0 in every other case.

- COMPOUND: "O=C(Nc1ccc(OC(F)(F)Cl)cc1)c1cnc(N2CCOCC2)c(-c2cc3c([nH]2)C(=O)NCC3)c1 [Compound 97]"
  TESTED TARGET: "Ba/F3-BCR-ABL1-T315I-C3 cells (Homo sapiens, UniProt P00519, T315I, cells depend on it)"
  CLASSIFICATION: "label 1"
- COMPOUND: "C[C@@H]1COCCN1c1ncc(C(=O)Nc2ccc(OC(F)(F)Cl)cc2)cc1-c1cc(=O)n(C)cn1 [Compound 56]"
  TESTED TARGET: "Ba/F3-BCR-ABL1-T315I-C3 cells (Homo sapiens, UniProt P00519, T315I, cells depend on it)"
  CLASSIFICATION: "label 0"
- COMPOUND: "O=C(Nc1ccc(OC(F)(F)Cl)cc1)c1cnc(N2CCOCC2)c(-c2cnn3c2COCC3)c1 [Compound 43]"
  TESTED TARGET: "Ba/F3-BCR-ABL1-T315I-C3 cells (Homo sapiens, UniProt P00519, T315I, cells depend on it)"
  CLASSIFICATION: "label 1"
- COMPOUND: "CNc1ncc(C(=O)Nc2ccc(OC(F)(F)Cl)cc2)cc1-c1cc2c([nH]1)C(=O)NC2 [Compound 110]"
  TESTED TARGET: "Ba/F3-BCR-ABL1-T315I-C3 cells (Homo sapiens, UniProt P00519, T315I, cells depend on it)"
  CLASSIFICATION: "label 1"
- COMPOUND: "Cn1ccc(-c2cc(C(=O)Nc3ccc(OC(F)(F)Cl)cc3)cnc2N2C3CCC2COC3)cc1=O [Compound 35]"
  TESTED TARGET: "Ba/F3-BCR-ABL1-T315I-C3 cells (Homo sapiens, UniProt P00519, T315I, cells depend on it)"
  CLASSIFICATION: "label 0"
- COMPOUND: "O=C(Nc1ccc(OC(F)(F)Cl)cc1)c1ccc(N2CC(O)C2)c(-c2cc3c([nH]2)C(=O)N(C2CC2)C3)c1 [Compound 120]"
  TESTED TARGET: "Ba/F3-BCR-ABL1-T315I-C3 cells (Homo sapiens, UniProt P00519, T315I, cells depend on it)"
  CLASSIFICATION: "label 1"
- COMPOUND: "Cn1ncc(-c2cc(C(=O)Nc3ccc(OC(F)(F)Cl)cc3)cnc2N2CC3CCC(C2)O3)cc1=O [Compound 91]"
  TESTED TARGET: "Ba/F3-BCR-ABL1-T315I-C3 cells (Homo sapiens, UniProt P00519, T315I, cells depend on it)"
  CLASSIFICATION: "label 1"
- COMPOUND: "Cn1ccc(-c2cc(C(=O)Nc3ccc(OC(F)(F)Cl)cc3)cnc2N2CC[C@@H](O)C2)cc1=O [Compound 11]"
  TESTED TARGET: "Ba/F3-BCR-ABL1-T315I-C3 cells (Homo sapiens, UniProt P00519, T315I, cells depend on it)"
  CLASSIFICATION: "label 0"
- COMPOUND: "Cn1ccc(-c2cc(C(=O)Nc3ccc(OC(F)(F)Cl)cc3)cnc2N2CCCO2)cc1=O [Compound 29]"
  TESTED TARGET: "Ba/F3-BCR-ABL1-T315I-C3 cells (Homo sapiens, UniProt P00519, T315I, cells depend on it)"
  CLASSIFICATION: "label 0"
- COMPOUND: "Cn1ccc(-c2cc(C(=O)Nc3ccc(OC(F)(F)Cl)cc3)cnc2N2CC(C)(O)C2)cc1=O [Compound 26]"
  TESTED TARGET: "Ba/F3-BCR-ABL1-T315I-C3 cells (Homo sapiens, UniProt P00519, T315I, cells depend on it)"
  CLASSIFICATION: "label 0"
- COMPOUND: "Cn1cccc(-c2cc(C(=O)Nc3ccc(OC(F)(F)Cl)cc3)cnc2N2CCOCC2)c1=O [Compound 86]"
  TESTED TARGET: "Ba/F3-BCR-ABL1-T315I-C3 cells (Homo sapiens, UniProt P00519, T315I, cells depend on it)"
  CLASSIFICATION: "label 0"
- COMPOUND: "CN1Cc2cc(-c3cc(C(=O)Nc4ccc(OC(F)(F)Cl)cc4)cnc3N3CC(O)C3)[nH]c2C1=O [Compound 112]"
  TESTED TARGET: "Ba/F3-BCR-ABL1-T315I-C3 cells (Homo sapiens, UniProt P00519, T315I, cells depend on it)"
  CLASSIFICATION: "label 1"
- COMPOUND: "Cn1ccc(-c2cc(C(=O)Nc3ccc(OC(F)(F)Cl)cc3)cnc2N2CC3CCC(C2)O3)cc1=O [Compound 34]"
  TESTED TARGET: "Ba/F3-BCR-ABL1-T315I-C3 cells (Homo sapiens, UniProt P00519, T315I, cells depend on it)"
  CLASSIFICATION: "label 1"
- COMPOUND: "O=C(Nc1ccc(OC(F)(F)Cl)cc1)c1cnc(N2CC[C@@H](O)C2)c(-c2cc3c([nH]2)C(=O)N(C2CC2)C3)c1 [Compound 113]"
  TESTED TARGET: "Ba/F3-BCR-ABL1-T315I-C3 cells (Homo sapiens, UniProt P00519, T315I, cells depend on it)"
  CLASSIFICATION: "label 1"
- COMPOUND: "Cn1ccc(-c2cc(C(=O)Nc3ccc(OC(F)(F)Cl)cc3)cnc2N2CC[C@H](F)C2)cc1=O [Compound 17]"
  TESTED TARGET: "Ba/F3-BCR-ABL1-T315I-C3 cells (Homo sapiens, UniProt P00519, T315I, cells depend on it)"
  CLASSIFICATION: "label 0"
